The reported measurements were obtained from ChEMBL document CHEMBL1909046.

- assayed_target: Alpha-2C adrenergic receptor (Homo sapiens)
- Sequence (P18825 whole entry): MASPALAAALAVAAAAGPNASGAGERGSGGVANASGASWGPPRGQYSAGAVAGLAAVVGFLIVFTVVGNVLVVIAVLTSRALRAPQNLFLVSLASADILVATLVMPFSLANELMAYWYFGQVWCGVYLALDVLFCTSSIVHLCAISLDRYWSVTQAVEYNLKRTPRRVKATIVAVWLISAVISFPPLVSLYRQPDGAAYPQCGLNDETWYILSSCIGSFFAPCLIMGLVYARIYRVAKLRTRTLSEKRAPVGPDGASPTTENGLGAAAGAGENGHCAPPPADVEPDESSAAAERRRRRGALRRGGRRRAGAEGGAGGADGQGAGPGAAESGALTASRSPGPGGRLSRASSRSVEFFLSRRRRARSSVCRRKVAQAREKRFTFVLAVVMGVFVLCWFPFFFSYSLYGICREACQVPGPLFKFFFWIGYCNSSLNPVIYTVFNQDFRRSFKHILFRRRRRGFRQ
- protocol_notes: DRUGMATRIX: Adrenergic Alpha-2C radioligand binding (ligand: [3H] MK-912)
- Type: cell membranes, Sf9, Membrane
- measurement_conditions: read-out: IC50
Parameter: IC50. Scope: all listed entries.
property_measured: IC50

# molecule, measured
rows = [
    ("S=C=Nc1cccc2ccccc12 [1-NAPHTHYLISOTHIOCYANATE]", "54.5 µM"),
    ("CN(C)c1ccc(C(=C2C=CC(=[N+](C)C)C=C2)c2ccc(N(C)C)cc2)cc1.[Cl-] [GENTIAN VIOLET]", "1.88 µM"),
    ("CN1CCC(=C2c3ccccc3C=Cc3ccccc32)CC1 [CYPROHEPTADINE]", "1.27 µM"),
    ("CCc1c2c(nc3ccc(OC(=O)N4CCC(N5CCCCC5)CC4)cc13)-c1cc3c(c(=O)n1C2)COC(=O)[C@]3(O)CC [IRINOTECAN]", "3.17 µM"),
    ("C[C@]12CC[C@@H]3c4ccc(OC(=O)c5ccccc5)cc4CC[C@H]3[C@@H]1CC[C@@H]2O [ESTRADIOL BENZOATE]", "24.6 µM"),
]

###

- assayed_target: Cathepsin G (Homo sapiens, UniProt P08311); also: in other assays of this panel Not Active means under 50% inhibition at 10 µM;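 also: inhibition of Cathepsin G enzyme activity, tested on an AMC-conjugated peptide substrate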
- Sequence (P08311 whole entry): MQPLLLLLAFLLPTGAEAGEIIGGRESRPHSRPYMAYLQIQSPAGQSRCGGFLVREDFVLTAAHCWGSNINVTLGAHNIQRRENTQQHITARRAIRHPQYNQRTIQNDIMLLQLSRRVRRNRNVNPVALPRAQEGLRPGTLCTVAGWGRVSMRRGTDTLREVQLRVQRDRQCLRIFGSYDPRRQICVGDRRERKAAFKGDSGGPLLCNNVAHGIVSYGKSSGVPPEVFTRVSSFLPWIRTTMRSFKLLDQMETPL
- Type: tissue-based
- measurement_conditions: neutrophil

# compound, IC50
data = [
    ("[H]/N=C(/N)N[C@H]1[C@H](O)[C@@H](O)[C@H](O[C@@H]2O[C@@H](C)[C@](O)(C=O)[C@H]2O[C@@H]2O[C@@H](CO)[C@H](O)[C@@H](O)[C@@H]2NC)[C@@H](N/C(N)=N\\[H])[C@@H]1O", "Not Active"),
    ("CN1C(C(=O)Nc2ccccn2)=C(O)c2sccc2S1(=O)=O", "Not Active"),
    ("COc1ccc2cc([C@H](C)C(=O)O)ccc2c1", "Not Active"),
    ("CCCC(=O)Nc1ccc(OCC(O)CNC(C)C)c(C(C)=O)c1 (centres undefined)", "Not Active"),
]

###

- assayed_target: Carbonic anhydrase 2 (Homo sapiens, UniProt P00918)
- protocol_notes: DRUGMATRIX: Carbonic Anhydrase II enzyme inhibition (substrate: 4-Nitrophenyl acetate (4-NPA))
- Format: tissue-based, Erythrocyte
- measurement_conditions: erythrocyte; Not Active = under 50% inhibition at 10 µM
property_measured: IC50

# molecule, measured
data = [
    ("C[N+](C)(C)CCO.[Cl-] [CHOLINE CHLORIDE]", "Not Active"),
    ("Cc1cc(C)nc(NS(=O)(=O)c2ccc(N)cc2)n1 [SULFAMETHAZINE]", "Not Active"),
    ("CC(C)NCC(O)COc1cccc2ccccc12 (centres undefined) [PROPRANOLOL]", "Not Active"),
    ("CC1(C)O[C@@H]2C[C@H]3[C@@H]4C[C@H](F)C5=CC(=O)CC[C@]5(C)[C@H]4[C@@H](O)C[C@]3(C)[C@]2(C(=O)CO)O1 [FLURANDRENOLIDE]", "Not Active"),
    ("COc1cc(NS(=O)(=O)c2ccc(N)cc2)nc(OC)n1 [SULFADIMETHOXINE]", "Not Active"),
    ("CCCC(CCC)C(=O)O [VALPROIC ACID]", "Not Active"),
    ("CC(C)[C@H]1CC[C@H](C(=O)N[C@H](Cc2ccccc2)C(=O)O)CC1 [NATEGLINIDE]", "Not Active"),
    ("CC(C)(C(=O)c1cccnc1)c1cccnc1 [METYRAPONE]", "Not Active"),
    ("COP(=O)(OC)OC=C(Cl)Cl [DICHLORVOS]", "Not Active"),
    ("Cc1nccn1CC1CCc2c(c3ccccc3n2C)C1=O (centres undefined) [ONDANSETRON]", "Not Active"),
    ("O=C(O)Cc1ccccc1Nc1c(Cl)cccc1Cl [DICLOFENAC]", "Not Active"),
    ("COCCOC(=O)C1=C(C)NC(C)=C(C(=O)OC(C)C)C1c1cccc([N+](=O)[O-])c1 (centres undefined) [NIMODIPINE]", "Not Active"),
    ("CCC1=C[C@@H]2CN(C1)Cc1c([nH]c3ccccc13)[C@@](C(=O)OC)(c1cc3c(cc1OC)N(C)[C@H]1[C@@](O)(C(=O)OC)[C@H](OC(C)=O)[C@]4(CC)C=CCN5CC[C@]31[C@@H]54)C2 [VINORELBINE]", "Not Active"),
    ("Nc1ccn([C@@H]2CS[C@H](CO)O2)c(=O)n1 [LAMIVUDINE]", "Not Active"),
    ("Cc1cc(=O)n(-c2ccccc2)n1C [ANTIPYRINE]", "Not Active"),
    ("CCn1cc(C(=O)O)c(=O)c2cc(F)c(N3CCN(C)CC3)cc21 [PEFLOXACIN]", "Not Active"),
    ("ClC(Cl)Cl [CHLOROFORM]", "Not Active"),
    ("O=c1ccc2ccccc2o1 [COUMARIN]", "Not Active"),
    ("Cn1c(=O)c2c(ncn2CC2OCCO2)n(C)c1=O [DOXOFYLLINE]", "Not Active"),
]
